The reported numbers originate from patent US11479551B2.

A collection of molecules and their measured IC50
Test system: HCT116 parental cells
Experiment: Proliferation assay (CellTiter-Glo, 10 days of treatment), HCT116 parental
Format: cell-based
Settings: Homo sapiens, HCT-116, 240 h
Protocol: Control samples were analyzed in parallel. […] On Day 11, the viability of the cells was measured using a CTG assay kit (CellTiter-Glo; Promega cat.no G7573) in accordance with the manufacturer's instructions. The IC50 values for each compound after 10 days of treatment were calculated using GraphPad PRISM software.

Cn1ncc(-c2cc(F)c3c(=O)[nH]nc(CN)c3c2)c1-c1cccc(Cl)c1C#N
> 10 µM

**Query** Print HCT116 parental cells IC50 for CCc1cccc(-c2c(-c3cc(F)c4c(=O)[nH]nc(CN)c4c3)cnn2C)c1C#N .
**Result** > 10 µM

**Query** State IC50 on HCT116 parental cells. Entry: CCOc1cccc(-c2c(-c3cc(F)c4c(=O)[nH]nc(CN)c4c3)cnn2C)c1C#N
**Result** > 10 µM

----------
System: HCT116 parental cells
Assay: Proliferation assay (CellTiter-Glo, 10 days of treatment), HCT116 parental
Assay type: cell-based
Details: Homo sapiens, HCT-116, 240 h
pIC50: −log10 of the molar value.
measuredMetric: pIC50

Examples with answers:
Cn1ncc(-c2ccc3c(=O)[nH]nc(CN)c3c2)c1-c1cccc(OC2CCC2)c1
< 5.00
Cc1cc(C#N)c(-c2c(-c3ccc4c(=O)[nH]nc(CN)c4c3)cnn2C)cc1Cl
< 5.00

With those in mind, consider the next compound.
**Query** Identify measured pIC50 corresponding to COc1cc(-c2c(-c3ccc4c(=O)[nH]nc(CN)c4c3)cnn2C)c(C#N)cc1Cl
**Result** < 5.00

----------
Target: PRMT5/MEP50 complex (Homo sapiens (Human))
Sequence (O14744 2-637): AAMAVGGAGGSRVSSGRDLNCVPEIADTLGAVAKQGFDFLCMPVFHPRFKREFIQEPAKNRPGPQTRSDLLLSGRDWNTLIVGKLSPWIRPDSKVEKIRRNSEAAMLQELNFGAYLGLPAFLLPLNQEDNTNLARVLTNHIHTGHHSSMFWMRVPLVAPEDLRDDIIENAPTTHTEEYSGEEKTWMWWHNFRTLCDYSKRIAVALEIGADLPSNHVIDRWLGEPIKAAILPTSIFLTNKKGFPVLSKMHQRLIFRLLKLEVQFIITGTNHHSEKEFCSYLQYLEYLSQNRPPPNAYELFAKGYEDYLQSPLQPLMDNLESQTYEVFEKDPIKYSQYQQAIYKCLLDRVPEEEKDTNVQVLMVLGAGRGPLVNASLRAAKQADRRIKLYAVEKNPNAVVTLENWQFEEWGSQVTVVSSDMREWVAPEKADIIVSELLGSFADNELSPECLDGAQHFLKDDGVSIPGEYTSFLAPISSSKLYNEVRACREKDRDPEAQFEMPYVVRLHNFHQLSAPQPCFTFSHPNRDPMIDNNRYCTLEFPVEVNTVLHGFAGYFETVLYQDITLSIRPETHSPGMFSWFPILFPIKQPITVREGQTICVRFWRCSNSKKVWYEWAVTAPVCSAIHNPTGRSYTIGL
Sequence (Q9BQA1 2-342 partner): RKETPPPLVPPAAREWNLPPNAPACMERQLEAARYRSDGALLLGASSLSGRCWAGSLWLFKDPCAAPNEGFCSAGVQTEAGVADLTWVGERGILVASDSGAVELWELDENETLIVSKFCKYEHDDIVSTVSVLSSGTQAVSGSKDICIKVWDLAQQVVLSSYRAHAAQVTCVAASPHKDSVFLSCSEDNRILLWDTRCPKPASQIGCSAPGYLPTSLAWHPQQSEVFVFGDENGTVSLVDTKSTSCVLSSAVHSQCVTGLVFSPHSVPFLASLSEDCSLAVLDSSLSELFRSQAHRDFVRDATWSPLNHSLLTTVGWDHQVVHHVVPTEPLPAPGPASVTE
Assay: PRMT5:MEP50 FlashPlate Assay (histone H4 peptide substrate, plus and minus MTA)
Format: biochemical
Details: in the absence of MTA, read-out: IC50
measuredMetric: IC50

These recorded examples may help you get a feel for the data.
COCc1cncc(-c2ccc3c(=O)[nH]nc(CN)c3c2)c1 [Example 3-46]
7.88 µM
COc1ccc2ncc(-c3ccc4c(=O)[nH]nc(CN)c4c3)n2c1 [Example 4-16]
0.602 µM
NCc1n[nH]c(=O)c2ccc(-c3cncc(C(F)F)c3)cc12 [Example 3-36]
9.13 µM
Cn1cncc1-c1ccc2c(=O)[nH]nc(CN)c2c1 [Example 3-30]
85.2 µM
NCc1n[nH]c(=O)c2ccc(-c3cncc(Sc4ccc(Cl)cc4)c3)cc12 [Example 4-57]
0.085 µM
CC(C)Cn1cc(-c2ccc3c(=O)[nH]nc(CN)c3c2)cn1 [Example 3-27]
59 µM

**Query** Quickly give me recorded IC50 for NCc1n[nH]c(=O)c2ccc(-c3cnc4[nH]ccc4c3)cc12 [Example 3-59]
**Result** 0.399 µM

**Query** In one line, give reported IC50 of the entry Cc1ccc(-c2c(-c3ccc4c(=O)[nH]nc(CN)c4c3)cnn2C)cn1 [Example 4-99] .
**Result** 0.547 µM

**Query** Complete the entry with IC50 for CCOc1ccn2ncc(-c3ccc4c(=O)[nH]nc(CN)c4c3)c2c1 [Example 4-158]
**Result** 0.113 µM

**Query** Indicate its recorded IC50; the compound in question is CC(C)CCn1cc(-c2ccc3c(=O)[nH]nc(CN)c3c2)cn1 [Example 3-26]
**Result** 20.6 µM

**Query** Quick one: give measured IC50 for COc1ccc(C#N)c(-c2c(-c3ccc4c(=O)[nH]nc(CN)c4c3)cnn2C)c1 [Example 4-104]
**Result** 0.028 µM
